# Target System: histamine (H1) receptor (Cavia porcellus, UniProt P31389)
# Construct: isolated smooth muscle of the guinea-pig ileum; from tissue; host or cells: isolated ileum segments of Dunkin Hartley guinea-pigs
# Sequence (P31389 whole entry): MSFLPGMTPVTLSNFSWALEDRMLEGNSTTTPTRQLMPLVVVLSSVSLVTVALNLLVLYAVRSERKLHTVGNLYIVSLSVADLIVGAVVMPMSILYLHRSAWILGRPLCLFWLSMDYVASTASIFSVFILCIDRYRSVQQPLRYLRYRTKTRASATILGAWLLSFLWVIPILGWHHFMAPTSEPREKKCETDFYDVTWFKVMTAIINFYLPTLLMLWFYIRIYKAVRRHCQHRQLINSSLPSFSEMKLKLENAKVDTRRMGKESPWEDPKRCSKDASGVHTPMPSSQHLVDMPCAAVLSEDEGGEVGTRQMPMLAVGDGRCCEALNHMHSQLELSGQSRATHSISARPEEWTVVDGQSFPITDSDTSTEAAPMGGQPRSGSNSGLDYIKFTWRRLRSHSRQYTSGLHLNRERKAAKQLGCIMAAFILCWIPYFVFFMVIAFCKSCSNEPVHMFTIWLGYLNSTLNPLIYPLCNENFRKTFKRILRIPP
# Assay Details: Antihistamine (H1) effect: inhibition of histamine-induced contractions of isolated guinea-pig ileum in vitro
# Type: cell-based, guinea-pig (Dunkin Hartley)
# Condition Notes: histamine 5 × 10^-6 mol/l, test substance 10^-6 mol/l, after 10 min. (after washing); read-out: in vitro (H1) receptor antagonism % inhibitory effect on histamine-induced contractions of the Ileum, after 10 min.
# Protocol: 3. Investigation of the antihistamine (H1) effect based on histamine (H1) receptor antagonism in vitro. To investigate the histamine (H1) receptor antagonism of the substances, the inhibitory effect thereof on histamine-induced contractions of the smooth musculature of isolated organ was determined in vitro. Isolated strips of organ from the ileum were used. In an organ bath of physiological saline solution, they react to addition of histamine by contracting. […]
Quantity Kind: inhibition at 1 µM (%)

(a) Cc1ccnc(N2CCN(CCc3c(C)n4c5c(cc([N+](=O)[O-])cc35)CCC4)CC2)c1
(b) Cc1c(CCN2CCN(c3ccccn3)CC2)c2cccc3c2n1CCC3
(c) Cc1c(CCN2CCN(c3ccc(Br)cn3)CC2)c2cccc3c2n1CCC3
Order the items by recorded inhibition at 1 µM; the first position goes to the largest value. Reply with the item labels sorted in the order that was asked for.
a, b, c

====

# Target System: histamine (H1) receptor (Cavia porcellus, UniProt P31389)
# Construct: isolated smooth muscle of the guinea-pig ileum; from tissue; host or cells: isolated ileum segments of Dunkin Hartley guinea-pigs
# Assay Details: Antihistamine (H1) effect: inhibition of histamine-induced contractions of isolated guinea-pig ileum in vitro
# Type: cell-based, guinea-pig (Dunkin Hartley)
# Condition Notes: histamine 5 × 10^-6 mol/l, test substance 10^-6 mol/l, after 30 sec.; read-out: in vitro (H1) receptor antagonism % inhibitory effect on histamine-induced contractions of the Ileum, after 30 sec.
Quantity Kind: inhibition at 1 µM (%)

See these solved cases before continuing.
[[record]]
molecule = "Cc1ccc(N2CCN(CCc3c(C)n4c5c(cccc35)CCC4)CC2)nc1"
quantity_kind = "inhibition at 1 µM"
val = 52

[[record]]
molecule = "Cc1ccnc(N2CCN(CCc3cn4c5c(cccc35)CCC4)CC2)c1"
quantity_kind = "inhibition at 1 µM"
val = 33


(P) Cc1ccnc(N2CCN(CCc3c(CO)n4c5c(cccc35)CCC4)CC2)c1
(Q) COc1ccc(C2CCc3cc(OC)cc4c(CCN5CCN(c6cc(C)ccn6)CC5)c(C)n2c34)cc1 (stereo not drawn)
Decide: P or Q , by lowest recorded inhibition at 1 µM. Selection: enter the item's label.
Q

(a) Cc1ccnc(N2CCN(CCc3c(C)n4c5c(cccc35)CCC4CO)CC2)c1 (stereo not drawn)
(b) Cc1c(CCN2CCN(c3ccc(Br)cn3)CC2)c2cccc3c2n1CCC3
(c) Cc1ccnc(N2CCN(CCc3c(C)n4c5c(cccc35)S(=O)(=O)CC4)CC2)c1 [Example 28b]
(d) CC(=O)c1cc2c3c(c1)c(CCN1CCN(c4cc(C)ccn4)CC1)c(C)n3CCC2
Please list these molecules in decreasing order of inhibition at 1 µM. Reply with the item labels sorted in the order that was asked for.
d, a, b, c

(1) Cc1cccc(N2CCN(CCc3c(C)n4c5c(cccc35)CCC4)CC2)n1
(2) CCCCC1CCc2cc(O)cc3c(CCN4CCN(c5cc(C)ccn5)CC4)c(C)n1c23 (stereo not drawn)
(3) COc1cccc(N2CCN(CCc3c(C)n4c5c(cccc35)CCC4)CC2)c1
Give the ascending ranking of the items by reported inhibition at 1 µM. Reply with the item labels sorted in the order that was asked for.
2, 1, 3
(2: 3%, 1: 24%, 3: 35%)

(P) Cc1ccnc(N2CCN(CCc3c(C)n4c5c(cc(N)cc35)CCC4)CC2)c1
(Q) CCCCC1CCc2cc(OC)cc3c(CCN4CCN(c5cc(C)ccn5)CC4)c(C)n1c23 (stereo not drawn)
Decide: P or Q , by lowest recorded inhibition at 1 µM. Selection: enter the item's label.
Q
